- System: MS2 coat protein
- Run Description: apparent KD of MS2 coat protein; designed switch direction (-1 OFF switch, 1 ON switch): -1; higher = weaker reporter binding
- Assay Context: input ligand: microRNA oligo, concentration not stated

- Seq Text: "GUAAUUAAUGUAGGAUAUGCAAGGCGAACCUAAGCAGAAGGACAUGUGGAUCACCCAUGUAAACAUGAGGAUCACCCAUGUGCU [salish99_ExNG1_r4_006] (Eterna round: R96, puzzle: Exclusion NG 1)"
  Scale Unit: "nM"
  apparent KD of MS2 coat protein: 1340
- Seq Text: "UUAAUUAAUUAACGCAGCAAGAUCACAUGAGGAUCACCCAUGUAGGAUAUCAGCUCGAUUAGAGCUGAGAAGGACAUAGCUGCG [ExNG3/1-A1] (Eterna round: R96, puzzle: Exclusion NG 3)"
  Scale Unit: "nM"
  apparent KD of MS2 coat protein: 18.2
- Seq Text: "ACAUGACUGCUAGGAUAUAGAUGACAUGAGGAUCACCCAUGUUGUCCCAUGUUGAUGGAAACCGACUAGAAGGAGCAGCAUAUG [Ex NG2 #11] (Eterna round: R96, puzzle: Exclusion NG 2)"
  Scale Unit: "nM"
  apparent KD of MS2 coat protein: 22.9
- Seq Text: "AGUCAGGCGGUAGGAUAUCCAAAUCGAGUGACCCUCUCAUAACAUGAGGAUCACCCAUGUCGGUGGGAGAAGGGCCGUAAGGCG [Mat - Exclusion NG 2 - Mod of JL - D63] (Eterna round: R96, puzzle: Exclusion NG 2)"
  Scale Unit: "nM"
  apparent KD of MS2 coat protein: 25.8

====

Parameter apparent KD of K4 kissing-loop reporter: see the listing below.
- System: K4 kissing-loop RNA reporter;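 further: bound reporter read as fluorescence of individual clusters on recovered sequencing chips by microscopy, with normalized cluster intensities fitted with a binding model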
- Run Description: apparent KD of K4 kissing-loop reporter; higher = weaker reporter binding
- Assay Context: Eterna round: R107; input ligand: arginine 13.2 mM

- Seq Text: "GCUAUGGUAGGAAGGAGCGCUACUUUGUUUUUACGAGUGAUGUUCGGUAGCAGAGUGUUAAAGCAGGUAGGUCGCCUACUAUAGC [Arginine B K4 19]"
  apparent KD of K4 kissing-loop reporter: "244 nM"
- Seq Text: "ACUGAGCAUGCGGCCGCCACUUCAGAACGUCGCCCAGAGGGCGACGCCUCCGCAGUGAUGUUGUGGAGGACCGGGCAUGUUCAGA [Omei KL Tryp B Exc A v5]"
  apparent KD of K4 kissing-loop reporter: "360 nM"
- Seq Text: "UCGAUGGUCAGCGAUACCAGCCCAGUGAUGUUGGGCACAUGGUUGCGGAAAAUCCCAUUGGGCCCUUGGCAGCGCUUGCAUGGGU [Titiquesan]"
  apparent KD of K4 kissing-loop reporter: "122 nM"
- Seq Text: "UGGAGUUGACGAAAAGUCAACUCCCGAGAAGGAGCGGACGAAAGUCCAGGUAGGUCGCUCACUACCAGUGAUGUUGGUACUUAAA"
  apparent KD of K4 kissing-loop reporter: "220 nM"
- Seq Text: "UUUAUUAAGACGGCCGCCACUGAAUUAGAGUGAUGUUCUAUAAUUUCUAAAUUAAAUUUAUUCAACAGGACCGGGUCAAUUAUUA [JR_SSTryptoB_Sub011]"
  apparent KD of K4 kissing-loop reporter: "364 nM"
- Seq Text: "AGACUUCACCGAAGGAGCGACGUAGCCUAGUGAUGUUAGGCGCGAGAGAAAUCUCGUAUACGUCAGGUAGGUCGCGGUGAAGUCA [Omei KL Arginine B SS C v4]"
  apparent KD of K4 kissing-loop reporter: "129 nM"

====

- Tested on: MS2 coat protein
- Run Description: apparent KD of MS2 coat protein; designed switch direction (-1 OFF switch, 1 ON switch): -1; higher = weaker reporter binding
- Assay Context: input ligand: microRNA oligo, concentration not stated
Categories are assigned from the measured apparent KD of MS2 coat protein using these intervals: low (below 20 nM), mid (20 nM to below 40 nM), high (40 nM or more)

- Seq Text: "ACAUGUGUUGUAGGAUAUAGGAUACAUGAGGAUCACCCAUGUGGAUUCAUGUCAAAGGAAGCGUCCUAGAAGGACGGCAACAUG [Ex NG2 #24] (Eterna round: R96, puzzle: Exclusion NG 2)"
  Class Name: "mid"
- Seq Text: "CUGCUGGAGCUUUGCUUUGGUCGUACAUGAGGAUCACCCAUGUAGGAUAUGGUAGGAUUUGCUUGCUAGAAGGAUAGAGUGGUC [salish99_ExNG3_r04_610] (Eterna round: R96, puzzle: Exclusion NG 3)"
  Class Name: "mid"
- Seq Text: "GAUGUCCAGCGAGGAUAUCUGGUAAAUAAAAUGAGAGAAGGCGCGAAGACAUGAGGAUCACCCAUGUUGUCGCAUGGGAGCCUG [Enqurete] (Eterna round: R96, puzzle: Exclusion NG 1)"
  Class Name: "mid"
- Seq Text: "AAGAAGGCCGUAGGAUAUACAGCAAGAACGCGAGUAGAAGGACGAUACAUGAGGAUCACCCAUGUACGUGGGUAGUGCUCGUGC [Soatceri] (Eterna round: R96, puzzle: Exclusion NG 1)"
  Class Name: "low"
- Seq Text: "GUCAGCUCGUGAGGAUAUGUAUAUACAUGAGGAUCACCCAUGUUAGAUCUGCUUCGGCUGUAUAUACAGAAGGCACGAGCUGAC [ENG2/16-A1] (Eterna round: R96, puzzle: Exclusion NG 2)"
  Class Name: "high"
- Seq Text: "AUCGUGCAGCUUUGCUGUACGAGUACAUGAGGAUCACCCAUGUAGGAUAUGGUACGCAAAGCGUGCUAGAAGGAUAUGAGAUGU [Mat - Exclusion NG 3 - Mod of JL - D98] (Eterna round: R96, puzzle: Exclusion NG 3)"
  Class Name: "mid"
- Seq Text: "CCCAGUUACGUAGGAUAUUGUACAUGAGGAUCACCCAUGUAAUAAAUGAGGAUUUCGGGUGUCUACAAGAAGGACGGGAUAGGC [Ostracism 17 - Jieux - Exclusion NG 2] (Eterna round: R96, puzzle: Exclusion NG 2)"
  Class Name: "high"
- Seq Text: "CCUCUUGGGCAAGGAUAUCCUGCGCGGUUCCGGCUCGUGUCUGUCACAUGAGGAUCACCCAUGUGGGAGAAGGUGCCUGCGGUC [Design 79] (Eterna round: R96, puzzle: Exclusion NG 2)"
  Class Name: "low"
- Seq Text: "AUAUGUGCGAGAGGAUAUCGUGUACAAAGUACACGAGAAGGCUUCACAUGAGGAUCACCCAUGUACCGAGGUGAAACACCUUGA [Omei Exc(NG)1 Bv5] (Eterna round: R96, puzzle: Exclusion NG 1)"
  Class Name: "high"
- Seq Text: "CUAAGUUGGUAAGGAUAUCCUACAUUAUUCUGACCCGUGCAAGCUACAUGAGGAUCACCCAUGUGGGAGAAGGUGCGUUAAUGU [Design 5] (Eterna round: R96, puzzle: Exclusion NG 2)"
  Class Name: "low"
- Seq Text: "AGCUGUGGCCGAGGAUAUCACGAACCAUGGAAAACCAUGGAACUCAAACAUGAGGAUCACCCAUGUGAGAAGGCGGUCUCAGCA [Eli eng2 - 018] (Eterna round: R96, puzzle: Exclusion NG 2)"
  Class Name: "low"
- Seq Text: "CUUGUUUAUGUAGGAUAUGCCUGGCGUGCCUUUGCAGAAGGACAUGAGGAUCACCCAUGUAACAUGAGGAUCACCCAUGUCGCA [salish99_ExNG1_r04_103] (Eterna round: R96, puzzle: Exclusion NG 1)"
  Class Name: "high"
- Seq Text: "GCAGCACAUGUAGGAUAUCUGCACGAUUAGUGCAGAGAAGGACAUGAGGAUCACCCAUGUAAUUAAGAUCAAUUAUUAAGCUGC [ENG1/3-C1] (Eterna round: R96, puzzle: Exclusion NG 1)"
  Class Name: "mid"
- Seq Text: "UUAUUAUAUGUAGGAUAUGCAUAUUGUUGUUAUGCAGAAGGACAUGAGGAUCACCCAUGUAUAUUGUUGUUAUAUAUUAUAUAU [Title] (Eterna round: R96, puzzle: Exclusion NG 1)"
  Class Name: "low"
- Seq Text: "ACGAUGACCGAAAAGUGUUAACUGACAUGAGGAUCACCCAUGUAGGAUAUGGCUACGAAAAGUAGUCAGAAGGACAUGUCAUCA [Omei Exc(NG) 3 Av7] (Eterna round: R96, puzzle: Exclusion NG 3)"
  Class Name: "low"
- Seq Text: "CACCGUAACAGAGGAUAUCAAACAUGAGGAUCACCCAUGUAAUAAAUGAGAAUUUCGAAUGUACCUGAGAAGGCUGAAACCGGC [Ostricism 83 - Jieux - Exclusion NG 2] (Eterna round: R96, puzzle: Exclusion NG 2)"
  Class Name: "mid"
- Seq Text: "CACCGUUAGUGAGGAUAUCGUACAUGAGGAUCACCCAUGUAAUAAAUGAGAAUUUCGGAUGUAUGCGAGAAGGCACAAAUCGGC [Ostracism 40 - Jieux - Exclusion NG 2] (Eterna round: R96, puzzle: Exclusion NG 2)"
  Class Name: "mid"
- Seq Text: "CCAUGGGAGCGAGGAUAUAGACCAUGGGAAGAUCUAGAAGGCGCUGACAUGAGGAUCACCCAUGUGUUCAUGAGGAGGUGGACA (Eterna round: R96, puzzle: Exclusion NG 1)"
  Class Name: "high"
